Each record here notes measured inhibition.
- measuredOn: Potassium voltage-gated channel subfamily A member 5 (Homo sapiens)
- assayExplanation: Inhibition of human Kv1.5 channel expressed in mouse L929 cells
- Format: cell-based
- Set-up: concentration or dose not given beside the values
- recordedConditions: concentration not given here

Solved cases below.
molecule	measuredOn	valueObserved
CC1=C(C(=O)N2CCC[C@H]2c2nnc[nH]2)C(c2ccc(Cl)c(Cl)c2)n2nccc2N1 (stereo in doubt; 17b)	Potassium voltage-gated channel subfamily A member 5 (Homo sapiens)	3%
CC1=C(C(=O)N2CCC[C@H]2c2nnn[nH]2)C(c2ccc(Cl)c(Cl)c2)n2nccc2N1 (stereo in doubt; 14b)	Potassium voltage-gated channel subfamily A member 5 (Homo sapiens)	8%

Now turn to the next molecule.
Look up and state reported inhibition for CC1=C(C(=O)N2CCCC2c2cccnc2)C(c2ccc(Cl)c(Cl)c2)n2nccc2N1 (stereo not drawn)
35%

###

- assayExplanation: Oral bioavailability in rat at 20 µmol/kg, po
- recordedConditions: in vivo
quantityKind: bioavailability (%)
Give a bare numeral; the unit % is implied.

// fetch bioavailability given entry CC1=C(C(=O)N2CCC[C@H]2c2ccc(F)cc2)[C@@H](c2ccc(Cl)c(Cl)c2)n2nccc2N1 [BMS-394136]
51

###

- assayExplanation: Fraction unbound in rabbit plasma at 10 mg/kg, iv
- Type: ADME, organism-based, Oryctolagus cuniculus
- Parameters: dose 10 mg/kg, route intravenous
quantityKind: fraction unbound
Please state the value as a number alone, without comment.

Supply measured fraction unbound of "CC1=C(C(=O)N2CCC[C@H]2c2ccc(F)cc2)[C@@H](c2ccc(Cl)c(Cl)c2)n2nccc2N1" in your reply.
0.03

###

- measuredOn: Potassium voltage-gated channel subfamily A member 5 (Homo sapiens, UniProt P22460)
- Sequence (P22460 whole entry): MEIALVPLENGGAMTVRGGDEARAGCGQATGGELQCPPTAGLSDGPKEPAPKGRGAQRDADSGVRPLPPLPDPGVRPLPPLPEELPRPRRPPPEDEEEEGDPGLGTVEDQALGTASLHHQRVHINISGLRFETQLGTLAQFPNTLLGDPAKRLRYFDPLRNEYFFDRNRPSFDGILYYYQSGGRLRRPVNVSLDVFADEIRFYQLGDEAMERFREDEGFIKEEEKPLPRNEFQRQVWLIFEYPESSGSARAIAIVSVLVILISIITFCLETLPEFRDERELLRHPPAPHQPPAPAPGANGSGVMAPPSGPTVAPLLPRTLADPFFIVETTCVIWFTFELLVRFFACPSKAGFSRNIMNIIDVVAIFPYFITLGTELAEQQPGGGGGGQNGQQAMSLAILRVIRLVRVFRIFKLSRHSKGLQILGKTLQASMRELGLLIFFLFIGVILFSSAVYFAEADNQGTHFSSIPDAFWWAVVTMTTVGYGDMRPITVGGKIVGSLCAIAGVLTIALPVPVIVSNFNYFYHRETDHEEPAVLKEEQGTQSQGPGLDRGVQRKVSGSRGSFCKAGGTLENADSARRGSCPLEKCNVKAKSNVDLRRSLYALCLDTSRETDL
- assayExplanation: Inhibition of human Kv1.5 channel expressed in mouse L929 cells
quantityKind: IC50

compound	IC50
CC1=C(C(=O)N2CCCC2c2cccnc2)C(c2ccc(Cl)c(Cl)c2)n2nccc2N1 (stereo not drawn)	> 1000 nM
CC1=C(C(=O)N2CCC[C@H]2c2cc(C)on2)C(c2ccc(Cl)c(Cl)c2)n2nccc2N1 (stereo in doubt; 21a)	> 1000 nM

Now for the compound whose IC50 we want.
Provide IC50 value for the following compound: CC1=C(C(=O)N2CCC[C@H]2c2n[nH]c(=O)n2C)C(c2ccc(Cl)c(Cl)c2)n2nccc2N1 (stereo partly drawn)
> 1000 nM

###

- measuredOn: Potassium voltage-gated channel subfamily A member 5 (Homo sapiens)
- assayExplanation: Inhibition of human Kv1.5 channel expressed in mouse L929 cells
quantityKind: pIC50
Quick note: pIC50 values are minus log10 of concentrations in mol/L.

Use the examples below as a reference point.
compound	pIC50
CC1=C(C(=O)N2CCCC2c2ccc(F)cc2)C(c2ccc(Cl)c(Cl)c2)n2nccc2N1 (mixture of isomers; 7)	7.15
CC1=C(C(=O)N2CCC(c3ccc(F)cc3)C2)C(c2ccc(Cl)c(Cl)c2)n2nccc2N1 (centres undefined)	6.80

Provide pIC50, tested on Potassium voltage-gated channel subfamily A member 5 (Homo sapiens), for CC1=C(C(=O)N2CCCC2c2ccccc2)C(c2ccc(Cl)c(Cl)c2)n2nccc2N1 (centres undefined) .
6.82

Recall the reported pIC50 of CC1=C(C(=O)N2CCC[C@H]2c2cc(C)on2)C(c2ccc(Cl)c(Cl)c2)n2nccc2N1 (stereo in doubt; 21b) on Potassium voltage-gated channel subfamily A member 5 (Homo sapiens) and write it down.
7.05
